Molecular target: Chromo domain-containing protein 1 (Saccharomyces cerevisiae (strain ATCC 204508 / S288c) (Baker's yeast)) (UniProt P32657)
Sequence (P32657 whole entry, the tested form may be a part): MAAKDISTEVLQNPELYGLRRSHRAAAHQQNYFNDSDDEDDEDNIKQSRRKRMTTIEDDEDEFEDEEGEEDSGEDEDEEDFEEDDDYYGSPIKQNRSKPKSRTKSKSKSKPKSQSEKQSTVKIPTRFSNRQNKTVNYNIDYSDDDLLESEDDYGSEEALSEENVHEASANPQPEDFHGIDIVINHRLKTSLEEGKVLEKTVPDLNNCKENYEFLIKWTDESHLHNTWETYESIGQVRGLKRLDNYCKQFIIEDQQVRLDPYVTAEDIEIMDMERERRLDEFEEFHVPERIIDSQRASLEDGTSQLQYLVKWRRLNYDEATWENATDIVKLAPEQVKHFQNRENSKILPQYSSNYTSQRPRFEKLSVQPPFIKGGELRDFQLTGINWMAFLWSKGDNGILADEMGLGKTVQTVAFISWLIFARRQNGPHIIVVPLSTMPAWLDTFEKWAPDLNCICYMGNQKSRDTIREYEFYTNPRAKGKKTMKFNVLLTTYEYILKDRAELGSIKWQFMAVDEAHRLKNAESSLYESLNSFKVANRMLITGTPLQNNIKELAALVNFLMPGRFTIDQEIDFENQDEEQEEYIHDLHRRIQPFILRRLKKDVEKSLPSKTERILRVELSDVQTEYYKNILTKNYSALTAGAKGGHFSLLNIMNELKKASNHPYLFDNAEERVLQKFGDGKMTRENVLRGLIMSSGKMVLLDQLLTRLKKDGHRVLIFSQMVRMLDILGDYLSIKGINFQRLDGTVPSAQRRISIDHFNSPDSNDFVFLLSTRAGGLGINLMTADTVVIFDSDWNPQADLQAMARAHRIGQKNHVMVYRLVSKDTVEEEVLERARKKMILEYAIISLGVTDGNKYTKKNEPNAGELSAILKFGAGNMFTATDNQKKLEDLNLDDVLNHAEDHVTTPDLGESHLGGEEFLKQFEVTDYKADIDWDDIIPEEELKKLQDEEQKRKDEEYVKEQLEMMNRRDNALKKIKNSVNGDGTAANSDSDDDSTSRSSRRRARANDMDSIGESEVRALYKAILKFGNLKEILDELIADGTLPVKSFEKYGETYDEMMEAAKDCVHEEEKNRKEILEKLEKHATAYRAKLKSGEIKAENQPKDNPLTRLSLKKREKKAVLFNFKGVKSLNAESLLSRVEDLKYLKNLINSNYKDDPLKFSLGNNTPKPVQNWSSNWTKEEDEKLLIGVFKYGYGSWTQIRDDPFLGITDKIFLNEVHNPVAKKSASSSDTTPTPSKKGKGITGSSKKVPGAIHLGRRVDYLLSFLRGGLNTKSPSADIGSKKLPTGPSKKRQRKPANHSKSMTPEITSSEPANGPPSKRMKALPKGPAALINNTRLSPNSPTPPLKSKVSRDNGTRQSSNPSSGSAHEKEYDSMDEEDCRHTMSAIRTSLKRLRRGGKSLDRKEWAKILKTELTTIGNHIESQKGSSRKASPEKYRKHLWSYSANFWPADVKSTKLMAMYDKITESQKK
Test: ScCHD-1 Enzyme Inhibition Assay
Type: functional
Set-up: scale not given: in the data most compounds retested in dose-response had high values
Details: 30 µM
Could you please report measured Percent Effect for the items listed next?
Please reply with the bare figure in % and do not write the unit itself.

// COCCCC1(CO)CCCN(CCc2ccccc2)C1 (centres undefined) : Percent Effect value = -2.34

Record summary for Cc1nc(C(C)(C)NC(=O)Nc2ccccc2)no1 : reported Percent Effect = -0.168

The compound listed as O=C(c1cnccn1)N1CCN(Cc2ccncc2)c2ncccc2C1 shows Percent Effect equal to -3.2

The reported value for CCNC(=O)N1CCCCC1CCNS(C)(=O)=O (centres undefined) in terms of Percent Effect is -1.52

Sample O=C(CN1CCCC1Cn1cncn1)NC(C1CC1)C1CC1 (centres undefined) ; Percent Effect observed: -1.96

Looking up CCOCCN1CCN(Cc2cccc(C(=O)N(C)C)c2)CC1 , I see its Percent Effect listed as 46.2

The reported value for CNC(=O)Nc1cc(-c2ccccc2C)nn1CCO in terms of Percent Effect is -7.09

Per the record, CC(C)C(C(=O)N1CCN(c2ccncc2)CC1)n1cncn1 (centres undefined) has Percent Effect of -7.32

# compound CC(C)(C)NC(=O)CNC(=O)CCc1ccccc1Br ; its Percent Effect = -2.98

Measured Percent Effect, CCOCc1cccc(S(=O)(=O)N2CCSCC2)c1 : -3.83

// sample CCN(Cc1cccc(Cl)c1)Cc1nc2c(cnn2C)c(=O)[nH]1 , its Percent Effect was -17.4

Given item Cc1nn(C)c(N2CCOCC2)c1CNC(c1cccs1)C(C)C (centres undefined) , the value recorded as its Percent Effect is -6.09

Percent Effect in this record for CCC(NC(=O)C1CCN(S(C)(=O)=O)CC1)c1ccc(OC)c(OC)c1 (centres undefined) : 3.51

Reported Percent Effect for Cn1ccnc1CN1CC[C@@H](NS(C)(=O)=O)[C@@H]1Cc1cccnc1 was -5.81

Just so you know, measured Percent Effect for COc1ccccc1CNC(=O)C1=NN(c2ccc(C)cc2)C(=O)CN1 came out at -2.26

Measured Percent Effect, O=C(c1ccco1)N1CCOCC2(C1)CN(c1ccccc1)C(=O)CO2 (centres undefined) : -5.45

compound CN(C(=O)Cn1nc(-c2ccc(F)cc2)oc1=O)C1CCS(=O)(=O)C1 (centres undefined) , Percent Effect observed: -6.7

NC(=O)CN1CCC(NC(=O)c2ccn(-c3cccc(F)c3)n2)CC1 yielded Percent Effect of -2.21

Query CC(O)CN1CCN(C(=O)c2cc3ccccc3c(=O)[nH]2)CC1 (centres undefined) yields Percent Effect of 12.2

Summary for this compound, COCCCn1c(CN2CCCC(O)C2)cnc1S(=O)(=O)C1CCCC1 (centres undefined) : Percent Effect is -11

Record Cc1cccc(-n2ncc(C(=O)N3CCn4c(C)nnc4C3)c2C)c1 . Reported Percent Effect: -0.99

compound CSCC(CCO)NC(=O)Nc1cc(C)ccc1C (centres undefined) , Percent Effect observed: -3.27

The value of Percent Effect measured for the compound Cc1nnc(N2CCC(CN(C)C(C)C)CC2)c(C#N)c1C turned out to be -23.4

Field Percent Effect (entry CS(=O)(=O)c1ccc(OCCNCc2cccc(F)c2)cc1 ) reads 3.19
